Ref: ChEMBL document CHEMBL1158358

Field: MIC. Provide a value for each of the compounds that follow.
Test system: Candida albicans
Assay: Antimicrobial activity against Candida albicans UFPEDA 1007 after 48 hrs by twofold serial dilution technique
Assay type: functional
Settings: UFPEDA 1007, 48 h
Please give a number only; it is taken to be in µg/mL.

So for "O=C1NC(=S)/C(=C/c2ccc(Br)cc2)S1" , the logged MIC turned out to be 32

So for "O=C1NC(=S)/C(=C/c2ccccc2F)S1" , the logged MIC turned out to be 32

So for "O=C1NC(=S)/C(=C/c2ccc(Cl)cc2Cl)S1" , the logged MIC turned out to be 32

So for "O=C1NC(=S)/C(=C/c2ccc(Cl)cc2)S1" , the logged MIC turned out to be 64

So for "O=C1NC(=S)/C(=C/c2cccc(F)c2)S1" , the logged MIC turned out to be 64

So for "O=C1NC(=S)/C(=C/c2cc(Cl)cc(Cl)c2Cl)S1" , the logged MIC turned out to be 64

====

System: Candida albicans
Assay: Antimicrobial activity against Candida albicans UFPEDA 1007 at 300 ug/disk after 48 hrs by disk diffusion method
Assay type: functional
Conditions: UFPEDA 1007, 48 h, read-out: IZ
Field: zone of inhibition at 300 µg/disc. Provide a value for each of the compounds that follow.
Please give a number only; it is taken to be in mm.

So for "O=C1NC(=S)/C(=C/c2cccc(Br)c2)S1" , the logged zone of inhibition at 300 µg/disc turned out to be 14

So for "O=C1NC(=S)/C(=C/c2ccccc2Br)S1" , the logged zone of inhibition at 300 µg/disc turned out to be 13

So for "O=C1NC(=S)CS1" , the logged zone of inhibition at 300 µg/disc turned out to be 19

So for "O=C1NC(=S)/C(=C/c2ccc(Cl)cc2Cl)S1" , the logged zone of inhibition at 300 µg/disc turned out to be 15

So for "O=C1NC(=S)/C(=C/c2c(Cl)cccc2Cl)S1" , the logged zone of inhibition at 300 µg/disc turned out to be 15

So for "O=C1NC(=S)/C(=C/c2ccc(Cl)cc2)S1" , the logged zone of inhibition at 300 µg/disc turned out to be 12

So for "O=C1NC(=S)/C(=C/c2cccc(Cl)c2)S1" , the logged zone of inhibition at 300 µg/disc turned out to be 13

So for "O=C1NC(=S)/C(=C/c2ccc(Cl)c(Cl)c2)S1" , the logged zone of inhibition at 300 µg/disc turned out to be 14

So for "O=C1NC(=S)/C(=C/c2ccccc2Cl)S1" , the logged zone of inhibition at 300 µg/disc turned out to be 12

So for "O=C1NC(=S)/C(=C/c2ccccc2F)S1" , the logged zone of inhibition at 300 µg/disc turned out to be 16

So for "O=C1NC(=S)/C(=C/c2ccc(Br)cc2)S1" , the logged zone of inhibition at 300 µg/disc turned out to be 15

So for "O=C1NC(=S)/C(=C/c2cccc(F)c2)S1" , the logged zone of inhibition at 300 µg/disc turned out to be 16

So for "O=C1NC(=S)/C(=C/c2ccc(F)cc2)S1" , the logged zone of inhibition at 300 µg/disc turned out to be 17

====

Test system: Micrococcus luteus
Assay: Antimicrobial activity against Micrococcus luteus UFPEDA 06 after 20 hrs by twofold serial dilution technique
Assay type: functional
Details: UFPEDA 06, 20 h
Field: MIC. Provide a value for each of the compounds that follow.
Please give a number only; it is taken to be in µg/mL.

So for "O=C1NC(=S)CS1" , the logged MIC turned out to be 4

So for "O=C1NC(=S)/C(=C/c2ccc(Cl)c(Cl)c2)S1" , the logged MIC turned out to be 4

So for "O=C1NC(=S)/C(=C/c2ccc(Br)cc2)S1" , the logged MIC turned out to be 8

So for "CC1(C)S[C@@H]2[C@H](NC(=O)[C@H](N)c3ccccc3)C(=O)N2[C@H]1C(=O)O" , the logged MIC turned out to be 2

====

Field: MIC. Provide a value for each of the molecules that follow.
System: Staphylococcus aureus
Experiment: Antimicrobial activity against multidrug-resistant Staphylococcus aureus H.C. 20981 isolate after 20 hrs by twofold serial dilution technique
Type: functional
Details: H.C. 20981, 20 h
Please give a number only; it is taken to be in µg/mL.

So for "O=C1NC(=S)CS1" , the logged MIC turned out to be 32

So for "CC1(C)S[C@@H]2[C@H](NC(=O)[C@H](N)c3ccccc3)C(=O)N2[C@H]1C(=O)O" , the logged MIC turned out to be 2

So for "O=C1NC(=S)/C(=C/c2ccc(F)cc2)S1" , the logged MIC turned out to be 4

So for "O=C1NC(=S)/C(=C/c2cccc(F)c2)S1" , the logged MIC turned out to be 2

So for "O=C1NC(=S)/C(=C/c2ccc(Cl)cc2Cl)S1" , the logged MIC turned out to be 2

So for "O=C1NC(=S)/C(=C/c2ccccc2Br)S1" , the logged MIC turned out to be 4

====

Test system: NCI-H292
Experiment: Cytotoxicity against human NCI-H292 cells at 5 ug/mL after 72 hrs by MTT assay
Type: functional
Settings: NCI-H292, 72 h, read-out: GI
Field: inhibition of growth at 5 µg/mL. Provide a value for each of the molecules that follow.
Please give a number only; it is taken to be in %.

So for "O=C1NC(=S)/C(=C/c2ccc(Cl)cc2Cl)S1" , the logged inhibition of growth at 5 µg/mL turned out to be 29.3

So for "O=C1NC(=S)/C(=C/c2ccc(Br)cc2)S1" , the logged inhibition of growth at 5 µg/mL turned out to be 16.6

So for "O=C1NC(=S)/C(=C/c2cccc(Br)c2)S1" , the logged inhibition of growth at 5 µg/mL turned out to be 22

So for "O=C1NC(=S)/C(=C/c2ccc(Cl)c(Cl)c2)S1" , the logged inhibition of growth at 5 µg/mL turned out to be 35.8

So for "O=C1NC(=S)/C(=C/c2cc(Cl)cc(Cl)c2Cl)S1" , the logged inhibition of growth at 5 µg/mL turned out to be 39.7

So for "O=C1NC(=S)/C(=C/c2ccccc2Cl)S1" , the logged inhibition of growth at 5 µg/mL turned out to be 34.2
